Target: T1, murine IL-11 (mouse, UniProt P47873 22-199)
T1 sequence: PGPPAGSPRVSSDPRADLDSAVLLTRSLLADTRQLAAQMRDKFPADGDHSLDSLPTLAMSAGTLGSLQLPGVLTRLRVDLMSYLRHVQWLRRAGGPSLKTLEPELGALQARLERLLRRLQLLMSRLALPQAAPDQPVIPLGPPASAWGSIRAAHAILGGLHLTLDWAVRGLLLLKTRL
Test: cell-based or functional assay
Each entry below carries its recorded RGA IC50.
Observed Property: RGA IC50 (nM)

INSERT INTO measurements (binder, assay_value) VALUES
  ('TPP-26304 (antibody, V domains shown) VH: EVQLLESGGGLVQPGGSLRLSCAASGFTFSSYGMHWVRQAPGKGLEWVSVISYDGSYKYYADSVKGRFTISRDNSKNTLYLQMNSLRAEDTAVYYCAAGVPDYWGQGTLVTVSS VL: QSVLTQPPSASGTPGQRVTISCTGSSSNIWAGYDVHWYQQLPGTAPKLLIYSNNERPSGVPDRFSGSKSGTSASLAISGLRSEDEADYYCAAWDDSLNGPVFGGGTKLTVL', 1.2),
  ('TPP-26298 (antibody, V domains shown) VH: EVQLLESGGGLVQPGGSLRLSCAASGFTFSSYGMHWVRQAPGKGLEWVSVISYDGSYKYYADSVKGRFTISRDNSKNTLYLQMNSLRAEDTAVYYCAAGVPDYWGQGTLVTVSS VL: QSVLTQPPSASGTPGQRVTISCLGSSSNIGAGYDVHWYQQLPGTAPKLLIYSNNERPSGVPDRFSGSKSGTSASLAISGLRSEDEADYYCAAWDDSLNGPVFGGGTKLTVL', 1.5),
  ('TPP-26311 (antibody, V domains shown) VH: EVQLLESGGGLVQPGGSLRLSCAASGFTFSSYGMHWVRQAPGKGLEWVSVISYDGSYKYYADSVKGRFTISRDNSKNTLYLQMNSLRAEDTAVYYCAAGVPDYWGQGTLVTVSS VL: QSVLTQPPSASGTPGQRVTISCTGSSSNIGAGYDHHWYQQLPGTAPKLLIYSNNERPSGVPDRFSGSKSGTSASLAISGLRSEDEADYYCAAWDDSLNGPVFGGGTKLTVL', 2.2),
  ('TPP-26293 (antibody, V domains shown) VH: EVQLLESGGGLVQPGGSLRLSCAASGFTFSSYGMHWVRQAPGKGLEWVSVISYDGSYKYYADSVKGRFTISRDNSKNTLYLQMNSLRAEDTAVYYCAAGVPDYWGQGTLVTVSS VL: QSVLTQPPSASGTPGQRVTISCTGSSSNIGAWYDVHWYQQLPGTAPKLLIYSNNERPSGVPDRFSGSKSGTSASLAISGLRSEDEADYYCAAWDDSLNGPVFGGGTKLTVL', 0.95),
  ('TPP-26294 (antibody, V domains shown) VH: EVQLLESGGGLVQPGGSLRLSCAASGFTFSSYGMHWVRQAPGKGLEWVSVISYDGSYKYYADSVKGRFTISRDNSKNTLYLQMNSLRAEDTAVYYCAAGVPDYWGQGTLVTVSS VL: QSVLTQPPSASGTPGQRVTISCTGSSSNIGAAYDVHWYQQLPGTAPKLLIYSNNERPSGVPDRFSGSKSGTSASLAISGLRSEDEADYYCAAWDDSLNGPVFGGGTKLTVL', 1.5),
  ('TPP-26292 (antibody, V domains shown) VH: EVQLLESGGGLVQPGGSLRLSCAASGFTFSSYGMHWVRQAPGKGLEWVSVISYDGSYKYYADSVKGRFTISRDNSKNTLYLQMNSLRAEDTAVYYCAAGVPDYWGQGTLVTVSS VL: QSVLTQPPSASGTPGQRVTISCTGSSSNIGAGYDVHWYQQLPGTAPKLLIYSNNERPSGVPDRFSGSKSGTSASLAISGLRSEDEADYYCAAWDESLNGPVFGGGTKLTVL', 0.94),
  ('TPP-26297 (antibody, V domains shown) VH: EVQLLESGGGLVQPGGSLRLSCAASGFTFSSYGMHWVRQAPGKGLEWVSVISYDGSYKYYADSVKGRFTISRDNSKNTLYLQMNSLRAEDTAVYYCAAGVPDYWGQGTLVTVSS VL: QSVLTQPPSASGTPGQRVTISCTGSSSNIGAGYDVHWYQQLPGTAPKLLIYSNNERPSGVPDRFSGSKSGTSASLAISGLRSEDEADYYCAAWQDSLNGPVFGGGTKLTVL', 1.8),
  ('TPP-26315 (antibody, V domains shown) VH: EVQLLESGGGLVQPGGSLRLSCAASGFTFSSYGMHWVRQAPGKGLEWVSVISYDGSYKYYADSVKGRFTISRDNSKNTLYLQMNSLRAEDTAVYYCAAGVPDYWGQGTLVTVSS VL: QSVLTQPPSASGTPGQRVTISCTGSSSNIGAHYDVHWYQQLPGTAPKLLIYSNNERPSGVPDRFSGSKSGTSASLAISGLRSEDEADYYCAAWDDSLNGPVFGGGTKLTVL', 1.5);
